The values you see were collected from PubChem BioAssay (Tox21).

Method: qHTS assay to identify small molecule antagonists of the thyroid receptor (TR) signaling pathway (AID 743065); note: nearly all actives have a fitted effect of over 55% in size
Condition Details: GH3.TRE-Luc, T3-stimulated luciferase inhibition, 23.5 h; series mostly up to 70.3 µM
Results filed as inconclusive are left out. Calls of active or inactive are those of the source. Calls come from the whole dose curve; as a rule, active = well fitted inhibition curve with a large enough effect in the repeat runs; inconclusive = weak or mixed curves; inactive = no such curve, though single readings can be large or run the other way.
Please answer using one outcome listed in active, inactive

**Q:** Called result for COC(C(=O)O)c1ccccc1 (stereo not given)
**A:** inactive

**Q:** Okay, and COc1ccc(NC(C)=O)cc1 ?
**A:** inactive

**Q:** Okay, and CC(C)CCOC(=O)CC(C)C ?
**A:** inactive

**Q:** Okay, and C=C(C)C1CC=C(C)C(O)C1 (stereo not given) ?
**A:** inactive

**Q:** Okay, and CCN1CCCC1CNC(=O)c1cc(S(N)(=O)=O)ccc1OC (stereo not given) ?
**A:** inactive

**Q:** Okay, and CC1CCN(CCCC(=O)c2ccc(F)cc2)CC1 ?
**A:** inactive

**Q:** Okay, and COc1nc(C)nc(N)n1 ?
**A:** inactive

**Q:** Okay, and CC(CCO)CCCC(C)(C)O (stereo not given) ?
**A:** inactive

**Q:** Okay, and c1ccc(SCCSc2ccccc2)cc1 ?
**A:** inactive

**Q:** Okay, and CC(O)CN(CCCN(C)C)CCCN(C)C (stereo not given) ?
**A:** inactive

**Q:** Okay, and CC/C=C\CCCCO ?
**A:** inactive

**Q:** Okay, and Nc1nc(F)nc2c1ncn2[C@@H]1O[C@H](CO)[C@@H](O)[C@@H]1O ?
**A:** active

**Q:** Okay, and Cc1ccccc1C(=O)O ?
**A:** inactive

**Q:** Okay, and C[C@H]1O[C@@H](n2cc(F)c(=O)[nH]c2=O)[C@H](O)[C@@H]1O ?
**A:** inactive

**Q:** Okay, and Cc1cc(C)cc(OCC2CNC(=O)O2)c1 (stereo not given) ?
**A:** inactive

**Q:** Okay, and Nc1cc(C(Cl)=C(Cl)Cl)c(S(N)(=O)=O)cc1S(N)(=O)=O ?
**A:** inactive

**Q:** Okay, and O=C1OC(=O)c2cc([N+](=O)[O-])ccc21 ?
**A:** inactive

**Q:** Okay, and O=S(=O)(O)c1ccccc1O ?
**A:** inactive

**Q:** Okay, and O=C(O)c1cccc(C(=O)O)n1 ?
**A:** inactive

**Q:** Okay, and C=C(C)C(=O)NCCC[N+](C)(C)C ?
**A:** inactive

**Q:** Okay, and NCC[C@H](O)C(=O)N[C@@H]1C[C@H](N)[C@@H](O[C@H]2O[C@H](CN)[C@@H](O)[C@H](O)[C@H]2O)[C@H](O)[C@H]1O[C@H]1O[C@H](CO)[C@@H](O)[C@H](N)[C@H]1O ?
**A:** inactive

**Q:** Okay, and Cc1ncc(CSSCc2cnc(C)c(O)c2CO)c(CO)c1O ?
**A:** inactive

**Q:** Okay, and N[C@@H](CS)C(=O)O ?
**A:** inactive

**Q:** Okay, and CC(C)c1cccc(C(C)C)c1N ?
**A:** inactive

**Q:** Okay, and Fc1ccccc1-c1ccccc1 ?
**A:** inactive

**Q:** Okay, and OC1OC[C@@H](O)[C@H](O)[C@H]1O (stereo not given in full) ?
**A:** inactive

**Q:** Okay, and Cc1c(C)n(CCN(C)C)c2ccc(C(=O)OCCN(C)C)cc12 ?
**A:** active

**Q:** Okay, and CCCCCCOC(=O)CC(CC(=O)OCCCCCC)(OC(=O)CCC)C(=O)OCCCCCC ?
**A:** inactive

**Q:** Okay, and C1C2OC2C2C1C1CC2C2OC12 (stereo not given) ?
**A:** inactive

**Q:** Okay, and COc1cc(C(=O)N2CCOCC2)cc(OC)c1OC ?
**A:** inactive

**Q:** Okay, and Cn1cnc2c(=O)[nH]c(N)nc21 ?
**A:** inactive

**Q:** Okay, and C=CCn1c(=O)n([C@@H]2O[C@H](CO)[C@@H](O)[C@H]2O)c2nc(N)[nH]c(=O)c21 ?
**A:** inactive

**Q:** Okay, and CC1=CC(=O)CCC1 ?
**A:** inactive

**Q:** Okay, and CCO[Si](CCCN=C=O)(OCC)OCC ?
**A:** inactive

**Q:** Okay, and C=CCSCC1Nc2cc(Cl)c(S(N)(=O)=O)cc2S(=O)(=O)N1 (stereo not given) ?
**A:** inactive
